molecular target: GPR119 (Homo sapiens, UniProt Q8TDV5); experiment: Arrestin agonist mode; settings: read-out: RC50 (the source's name)
Sequence (Q8TDV5 whole entry): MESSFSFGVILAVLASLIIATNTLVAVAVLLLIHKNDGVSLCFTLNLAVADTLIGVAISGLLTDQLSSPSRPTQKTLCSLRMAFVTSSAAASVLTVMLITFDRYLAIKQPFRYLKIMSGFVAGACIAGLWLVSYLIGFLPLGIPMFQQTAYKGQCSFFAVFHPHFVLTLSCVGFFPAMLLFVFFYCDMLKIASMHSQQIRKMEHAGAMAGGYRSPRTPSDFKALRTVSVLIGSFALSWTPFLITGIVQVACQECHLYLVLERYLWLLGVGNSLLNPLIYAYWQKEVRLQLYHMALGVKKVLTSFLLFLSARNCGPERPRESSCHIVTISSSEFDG
endpoint.label: EC50 (nM)
Numbers only, in nM.

Name the recorded EC50 for CCCCCCCC/C=C\CCCCCCCC(=O)NCCO [Oleoyl Ethanolamide] . 1840

---

target: GPR103 (Homo sapiens); test: Arrestin agonist mode; assay type: cell-based; details: read-out: RC50 (the source's name)
Sequence (Q96P65 whole entry): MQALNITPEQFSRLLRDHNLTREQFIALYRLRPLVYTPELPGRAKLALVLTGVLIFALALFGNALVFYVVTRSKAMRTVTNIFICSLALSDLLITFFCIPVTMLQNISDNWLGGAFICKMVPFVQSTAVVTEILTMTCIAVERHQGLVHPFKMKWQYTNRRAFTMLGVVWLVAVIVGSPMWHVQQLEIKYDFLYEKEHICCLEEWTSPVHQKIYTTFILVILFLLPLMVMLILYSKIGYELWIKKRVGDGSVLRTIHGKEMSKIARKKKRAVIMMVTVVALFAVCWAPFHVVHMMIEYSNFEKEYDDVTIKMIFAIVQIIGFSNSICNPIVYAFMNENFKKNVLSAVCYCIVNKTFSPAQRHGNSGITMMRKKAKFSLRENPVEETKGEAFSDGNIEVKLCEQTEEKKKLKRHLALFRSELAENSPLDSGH
Where no end group is shown, it is not given here.
endpoint.label: pEC50
Answers are plain numbers, as −log10 of the molar value.

Name the recorded pEC50 for TSGPLGNLAEELNGYSRKKGGFSFRF-NH2 (C-terminus assumed) [QRFP-26] . 8.00

---

biological target: P2RY2 (Homo sapiens, UniProt P41231); test: Arrestin agonist mode; details: read-out: RC50 (the source's name)
Sequence (P41231 whole entry): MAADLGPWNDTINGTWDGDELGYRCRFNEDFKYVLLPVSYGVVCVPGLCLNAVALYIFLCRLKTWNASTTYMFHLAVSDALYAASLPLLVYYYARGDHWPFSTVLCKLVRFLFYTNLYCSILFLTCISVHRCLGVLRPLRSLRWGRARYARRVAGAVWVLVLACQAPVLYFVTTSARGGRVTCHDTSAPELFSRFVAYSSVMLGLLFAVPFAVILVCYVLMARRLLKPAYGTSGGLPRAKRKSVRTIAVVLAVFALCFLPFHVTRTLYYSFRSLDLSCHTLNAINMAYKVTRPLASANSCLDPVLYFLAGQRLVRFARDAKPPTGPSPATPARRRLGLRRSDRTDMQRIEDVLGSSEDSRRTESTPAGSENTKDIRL
endpoint.label: pEC50
Numbers only, as −log10 of the molar value.

Name the recorded pEC50 for O=c1ccn([C@@H]2O[C@H](COP(=O)(O)OP(=O)(O)OP(=O)(O)O)[C@@H](O)[C@H]2O)c(=O)[nH]1 [UTP] . 6.37

---

target: EDG1 (Homo sapiens); experiment: Arrestin agonist mode; settings: read-out: RC50 (the source's name)
Sequence (P21453 whole entry): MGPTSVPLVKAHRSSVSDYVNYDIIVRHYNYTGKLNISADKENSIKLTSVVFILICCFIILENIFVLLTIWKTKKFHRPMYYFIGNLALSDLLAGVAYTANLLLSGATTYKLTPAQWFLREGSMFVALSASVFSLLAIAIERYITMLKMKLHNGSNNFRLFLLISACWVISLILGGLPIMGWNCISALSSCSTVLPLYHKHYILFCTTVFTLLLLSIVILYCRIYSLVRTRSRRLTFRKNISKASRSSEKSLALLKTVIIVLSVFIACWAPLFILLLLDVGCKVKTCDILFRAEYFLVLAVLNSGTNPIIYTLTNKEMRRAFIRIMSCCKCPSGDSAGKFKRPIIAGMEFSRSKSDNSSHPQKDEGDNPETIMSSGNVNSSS
endpoint.label: EC50
Reply with the number and its unit after it.

Name the recorded EC50 for `CCCCCCCCCCCCC/C=C/[C@@H](O)[C@@H](N)COP(=O)(O)O` . 19 nM

---

Molecular target: TBXA2R (Homo sapiens)
Sequence (P21731 1-343): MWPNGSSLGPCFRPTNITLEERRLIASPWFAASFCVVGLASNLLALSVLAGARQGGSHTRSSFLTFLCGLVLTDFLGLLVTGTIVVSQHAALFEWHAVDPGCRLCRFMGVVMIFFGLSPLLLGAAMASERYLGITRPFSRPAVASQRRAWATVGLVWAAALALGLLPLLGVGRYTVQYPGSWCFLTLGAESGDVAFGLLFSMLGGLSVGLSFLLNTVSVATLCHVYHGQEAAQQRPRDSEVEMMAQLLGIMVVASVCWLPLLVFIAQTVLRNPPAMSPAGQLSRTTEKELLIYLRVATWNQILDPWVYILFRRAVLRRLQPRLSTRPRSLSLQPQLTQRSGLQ
Assay: Arrestin agonist mode
Conditions: read-out: RC50 (the source's name)
endpoint.label: pEC50
One number for each entry, as −log10 of the molar value.

Name the recorded pEC50 for O=C(O)CCC/C=C\C[C@@H]1[C@@H](/C=C/[C@@H](O)COc2ccc(I)cc2)[C@H]2CC[C@@H]1O2 [I-BOP] . 7.67

---

biological target: NPSR1B (Homo sapiens); assay: Arrestin agonist mode; format: cell-based; conditions: read-out: RC50 (the source's name)
Sequence (Q6W5P4 1-377 isoform Q6W5P4-4): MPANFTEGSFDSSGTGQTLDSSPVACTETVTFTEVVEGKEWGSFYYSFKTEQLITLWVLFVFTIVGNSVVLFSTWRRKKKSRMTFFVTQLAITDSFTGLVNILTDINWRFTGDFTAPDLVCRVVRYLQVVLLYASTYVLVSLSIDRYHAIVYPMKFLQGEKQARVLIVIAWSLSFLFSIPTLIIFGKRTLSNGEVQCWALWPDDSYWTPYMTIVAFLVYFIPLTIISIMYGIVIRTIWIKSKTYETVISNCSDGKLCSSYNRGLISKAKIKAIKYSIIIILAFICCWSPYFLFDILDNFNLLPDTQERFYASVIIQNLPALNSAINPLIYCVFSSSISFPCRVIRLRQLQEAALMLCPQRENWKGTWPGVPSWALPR
Where no end group is shown, it is not given here.
endpoint.label: EC50 (nM)
Numbers only, in nM.

Name the recorded EC50 for SFRNGVGTGMKKTSFQRAKS [Neuropeptide S] . 23.6

---

target: GPR109B (Homo sapiens, UniProt P49019); assay: Arrestin agonist mode; settings: read-out: RC50 (the source's name)
Sequence (P49019 whole entry): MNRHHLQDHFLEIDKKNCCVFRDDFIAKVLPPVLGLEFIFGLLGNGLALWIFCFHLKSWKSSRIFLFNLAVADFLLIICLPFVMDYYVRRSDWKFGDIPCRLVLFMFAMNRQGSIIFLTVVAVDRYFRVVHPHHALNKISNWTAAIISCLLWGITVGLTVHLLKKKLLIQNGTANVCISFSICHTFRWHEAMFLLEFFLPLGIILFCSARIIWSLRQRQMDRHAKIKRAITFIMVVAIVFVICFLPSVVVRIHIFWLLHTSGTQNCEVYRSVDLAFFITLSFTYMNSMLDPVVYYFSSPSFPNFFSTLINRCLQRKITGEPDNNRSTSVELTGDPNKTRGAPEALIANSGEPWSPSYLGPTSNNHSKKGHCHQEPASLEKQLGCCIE
endpoint.label: EC50 (µM)
Numbers only, in µM.

Name the recorded EC50 for CCCCCC(O)CC(=O)O (stereo not shown) [3-Hydroxyoctanoic Acid] . 373

---

biological target: UniProt:P51582; test: Arrestin agonist mode; settings: read-out: RC50 (the source's name)
Sequence (P51582 whole entry): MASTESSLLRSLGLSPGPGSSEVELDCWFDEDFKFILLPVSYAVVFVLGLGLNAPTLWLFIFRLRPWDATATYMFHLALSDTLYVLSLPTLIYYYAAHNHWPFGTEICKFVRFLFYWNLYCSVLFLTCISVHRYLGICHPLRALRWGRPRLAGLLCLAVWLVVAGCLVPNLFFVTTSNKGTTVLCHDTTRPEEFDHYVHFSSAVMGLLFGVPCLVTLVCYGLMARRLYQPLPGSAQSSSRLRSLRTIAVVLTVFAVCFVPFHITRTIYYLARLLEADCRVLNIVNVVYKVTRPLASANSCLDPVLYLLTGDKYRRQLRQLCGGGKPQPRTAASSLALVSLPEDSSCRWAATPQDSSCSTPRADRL
endpoint.label: EC50 (nM)
Numbers only, in nM.

Name the recorded EC50 for `O=c1ccn([C@@H]2O[C@H](COP(=O)(O)OP(=O)(O)OP(=O)(O)O)[C@@H](O)[C@H]2O)c(=O)[nH]1` . 126

Source: patent US20260184748A1
